target: Recombinant human renin (Homo sapiens, UniProt P00797); construct: isolate the active form (residues 67-406); made in house; host or cells: FreeStyle 293-F cells (transient expression of pcDNA3.1(+)/hREN); assay: In vitro enzymatic activity assay of renin inhibitors (fluorogenic peptide substrate); format: biochemical; details: read-out: IC50 of Exemplified Compounds Against Renin
Sequence (P00797 67-406): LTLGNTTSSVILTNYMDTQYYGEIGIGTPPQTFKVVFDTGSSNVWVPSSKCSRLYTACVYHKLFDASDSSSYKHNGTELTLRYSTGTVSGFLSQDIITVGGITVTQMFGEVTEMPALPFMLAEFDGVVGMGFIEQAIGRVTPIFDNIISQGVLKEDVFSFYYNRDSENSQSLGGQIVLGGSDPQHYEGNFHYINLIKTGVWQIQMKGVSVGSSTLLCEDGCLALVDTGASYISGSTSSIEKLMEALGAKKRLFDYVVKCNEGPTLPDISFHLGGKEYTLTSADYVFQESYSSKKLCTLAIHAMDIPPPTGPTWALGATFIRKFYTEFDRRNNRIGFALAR
pIC50: −log10 of the molar value.
measured property: pIC50

[
  {
    "compound": "COCCCn1c([C@@H]2CCCN(C(=O)[C@@H]3CN(C(=O)Nc4ccccc4)C[C@H]3N)C2)nc2ccccc21",
    "pIC50": "< 6.00"
  },
  {
    "compound": "COCCCn1c([C@@H]2CCCN(C(=O)C[C@H](N)Cc3ccc(-c4ccc5c(c4)NC(=O)C5)cc3)C2)nc2c(F)cccc21",
    "pIC50": "> 7.00"
  },
  {
    "compound": "COCCCn1c([C@@H]2CCCN(C(=O)[C@@H]3CN(C(=O)N4CCOCC4)C[C@H]3N)C2)nc2ccccc21",
    "pIC50": "< 6.00"
  },
  {
    "compound": "N[C@@H](CCl)C(=O)N1CCCC(c2nc3ccccc3[nH]2)C1 (some centres unmarked)",
    "pIC50": "< 6.00"
  },
  {
    "compound": "N[C@@H](CC(=O)N1CCCC(c2nc3ccccc3[nH]2)C1)c1ccc(Cl)cc1Cl (some centres unmarked)",
    "pIC50": "< 6.00"
  }
]

Can you look up the measured pIC50 of `COCCCn1c([C@@H]2CCCN(C(=O)C[C@H](N)Cc3ccc4ccccc4c3)C2)nc2cccc(OC)c21` for me?
6.00 to 7.00

Lookup `COCCCn1c([C@@H]2CCCN(C(=O)C[C@H](N)CNC(=O)Nc3cc(OC)ccc3OC)C2)nc2ccccc21`
6.00 to 7.00

Lookup `COCCCn1c([C@H]2CCCN(C(=O)C[C@H](N)Cc3ccc(Cl)cc3)C2)nc2ccccc21`
< 6.00

Lookup `COCCCn1c([C@@H]2CCCN(C(=O)C[C@H](N)Cc3ccc(-c4ccc(C(=O)NC(C)(C)CO)cc4)cc3)C2)nc2ccccc21`
> 7.00

Lookup `COCCCn1c([C@@H]2CCCN(C(=O)C[C@H](N)Cc3ccc(-c4ccc5c(c4)OCC(=O)N5)cc3)C2)nc2c(C)cccc21`
> 7.00
